Numbers sourced from the supplement of paper PMC12350171.

Reported growth AUC normalised to DMSO control by item:
System: S. enterica typhimurium WT;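 further: active when median AUC fell below 0.1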
Test: growth AUC normalised to DMSO control (median) (fraction of control); higher = less growth inhibition, active = hit call of the paper
Conditions: 20 µM
Structures can show the parent of a compound that is named as a salt.
ATTRIBUTE MEASURED: growth AUC normalised to DMSO control

compound="CN(C)CCC(c1ccccc1)c1ccccn1 (centres undefined) [Pheniramine maleate]" attribute_measured="growth AUC normalised to DMSO control" data_value=0.999
compound="CCN(CC)CCNC(=O)COc1ccc(OC)cc1 [Mefexamide hydrochloride]" attribute_measured="growth AUC normalised to DMSO control" data_value=1.01
compound="CC(C)NCC(O)COc1ccc(CCOCC2CC2)cc1 (centres undefined) [Betaxolol hydrochloride]" attribute_measured="growth AUC normalised to DMSO control" data_value=1.01
compound=CC(=O)Oc1ccccc1C(=O)Oc1ccccc1C(=O)O attribute_measured="growth AUC normalised to DMSO control" data_value=0.999
compound="CC1(C)O[C@@H]2C[C@H]3[C@@H]4C[C@H](F)C5=CC(=O)CC[C@]5(C)[C@H]4[C@@H](O)C[C@]3(C)[C@]2(C(=O)CO)O1 [Flurandrenolide]" attribute_measured="growth AUC normalised to DMSO control" data_value=0.996
compound="CN(Cc1ccc(C(C)(C)C)cc1)Cc1cccc2ccccc12 [Butenafine hydrochloride]" attribute_measured="growth AUC normalised to DMSO control" data_value=0.995
compound=CN(CCCN1c2ccccc2CCc2ccccc21)CC(=O)c1ccc(Cl)cc1 attribute_measured="growth AUC normalised to DMSO control" data_value=0.985
compound="CN(C)CCCN1c2ccccc2Sc2ccccc21 [Promazine hydrochloride]" attribute_measured="growth AUC normalised to DMSO control" data_value=0.991
compound="CN1CCCN=C1/C=C/c1cccc(O)c1 [Oxantel pamoate]" attribute_measured="growth AUC normalised to DMSO control" data_value=1.01
compound=OCC(CO)N[C@H]1C[C@](O)(CO)[C@@H](O)[C@H](O)[C@H]1O attribute_measured="growth AUC normalised to DMSO control" data_value=0.977
compound="CO/N=C(\\C(=O)N[C@@H]1C(=O)N2C(C(=O)[O-])=C(C[n+]3ccn4ncccc43)CS[C@H]12)c1nsc(N)n1 [Cefozopran hydrochloride]" attribute_measured="growth AUC normalised to DMSO control" data_value=0.0996
compound="N=C(N)NCCN1CCCCCCC1 [Guanethidine sulfate]" attribute_measured="growth AUC normalised to DMSO control" data_value=1.01
compound="CN1[C@@H]2CC[C@H]1C[C@@H](OC(c1ccccc1)c1ccccc1)C2 [Benztropine mesylate]" attribute_measured="growth AUC normalised to DMSO control" data_value=0.998
compound=COC(=O)Nc1nc2cc(C(=O)c3ccc(F)cc3)ccc2[nH]1 attribute_measured="growth AUC normalised to DMSO control" data_value=1.01
compound="CCCCC(CC)CNC(=N)NC(=N)NCCCCCCNC(=N)NC(=N)NCC(CC)CCCC (centres undefined) [Alexidine dihydrochloride]" attribute_measured="growth AUC normalised to DMSO control" data_value=0.977
compound="CC(C)N1CCN(c2ccc(OCC3COC(Cn4cncn4)(c4ccc(Cl)cc4Cl)O3)cc2)CC1 (centres undefined)" attribute_measured="growth AUC normalised to DMSO control" data_value=1.01
compound="COC(=O)C1=C(C)NC(C)=C(C(=O)O[C@H]2CCN(Cc3ccccc3)C2)[C@H]1c1cccc([N+](=O)[O-])c1 [Barnidipine Hydrochloride]" attribute_measured="growth AUC normalised to DMSO control" data_value=0.998
compound="CC1(C)O[C@@H]2C[C@H]3[C@@H]4CCC5=CC(=O)CC[C@]5(C)[C@@]4(F)[C@@H](O)C[C@]3(C)[C@]2(C(=O)CCl)O1 [Halcinonide]" attribute_measured="growth AUC normalised to DMSO control" data_value=1.02
compound=Cc1c(Cl)cccc1Nc1ccccc1C(=O)O attribute_measured="growth AUC normalised to DMSO control" data_value=1.02
compound="Cn1c(=O)c2nc[nH]c2n(C)c1=O [Theophylline monohydrate]" attribute_measured="growth AUC normalised to DMSO control" data_value=1.01
compound="Cc1cc2nc3ccc(=[N+](C)C)cc-3sc2cc1N [Tolonium chloride]" attribute_measured="growth AUC normalised to DMSO control" data_value=0.981
compound="N=C(N)NC(=O)Cc1c(Cl)cccc1Cl [Guanfacine hydrochloride]" attribute_measured="growth AUC normalised to DMSO control" data_value=0.989
compound="CC(C)(C)NCC(O)COc1cccc2c1CCC(=O)N2 (centres undefined) [Carteolol hydrochloride]" attribute_measured="growth AUC normalised to DMSO control" data_value=0.998
compound="CCCN[C@H]1CCc2nc(N)sc2C1 [Pramipexole dihydrochloride]" attribute_measured="growth AUC normalised to DMSO control" data_value=0.992
compound="Cc1cc(C)nc(NS(=O)(=O)c2ccc(N)cc2)n1 [Sulfamethazine sodium salt]" attribute_measured="growth AUC normalised to DMSO control" data_value=0.992
compound=COC(=O)Nc1nc2ccc(SC(C)C)cc2[nH]1 attribute_measured="growth AUC normalised to DMSO control" data_value=0.997
compound="Cc1scc2c1N(C(=O)CN1CCN(C)CC1)c1ccccc1NC2=O [Telenzepine dihydrochloride]" attribute_measured="growth AUC normalised to DMSO control" data_value=1.01
compound="CN1CCN(CCCN2c3ccccc3Sc3ccc(C(F)(F)F)cc32)CC1 [Trifluoperazine dihydrochloride]" attribute_measured="growth AUC normalised to DMSO control" data_value=1.02
compound=O=C(O)c1cccnc1 attribute_measured="growth AUC normalised to DMSO control" data_value=1.02
compound="CN(C)CCOC1=Cc2ccccc2Sc2ccc(Cl)cc21 [Zotepine]" attribute_measured="growth AUC normalised to DMSO control" data_value=1.01
compound=NC(=O)[C@@H]1CCCN1C(=O)[C@H](Cc1c[nH]cn1)NC(=O)[C@@H]1CCC(=O)N1 attribute_measured="growth AUC normalised to DMSO control" data_value=0.996
compound="Cc1cccc(CN2CCN(C(c3ccccc3)c3ccc(Cl)cc3)CC2)c1 (centres undefined) [Meclozine dihydrochloride]" attribute_measured="growth AUC normalised to DMSO control" data_value=1
compound="CC1=C(C)C(=O)C(C(CCCCCC(=O)O)c2ccccc2)=C(C)C1=O (centres undefined)" attribute_measured="growth AUC normalised to DMSO control" data_value=1.01
compound=Cc1nnc(NS(=O)(=O)c2ccc(N)cc2)s1 attribute_measured="growth AUC normalised to DMSO control" data_value=0.978
